procedure_summary: Pharmacokinetic study with Compound 218 (IV 5 mg/kg, PO 25 mg/kg)
Type: in vivo
study_conditions: dog, plasma; analyte Compound 218; IV 5 mg/kg Compound 218; fasted male beagle dogs; mean; read-out: Compound 218 PK CL
quantity_kind: clearance (mL/min/kg)
Numbers only, in mL/min/kg.

Please report the measured clearance for CC(=O)[C@H]1CC[C@H]2[C@@H]3CC[C@H]4C[C@](C)(OC(=O)COC(=O)C(C)(C)N)CC[C@]4(C)[C@H]3CC[C@]12C
37.9

----------
Can you tell me half-life for the items I'm about to list?
procedure_summary: Stability in simulated intestinal fluid (SIF)
Format: in vitro ADME
study_conditions: simulated gi fluid, pH 6.8
Give bare numbers, in h.

# structure_notation, quantity_kind, display_unit, recorded_result
measured = [
    ("CC(=O)OCCN(C)CC(=O)OC(C)(C)C(=O)OCC(=O)O[C@]1(C)CC[C@@]2(C)[C@@H](CC[C@@H]3[C@@H]2CC[C@]2(C)[C@@H](C(C)=O)CC[C@@H]32)C1", "half-life", "h", 2.43),
]

Let us examine a further case.
Supply measured half-life of CC(=O)[C@H]1CC[C@H]2[C@@H]3CC[C@H]4C[C@](C)(OC(=O)COC(=O)C(C)(C)O)CC[C@]4(C)[C@H]3CC[C@]12C in your reply.
1.63

----------
procedure_summary: in vitro
Type: in vitro ADME, human
study_conditions: human liver microsomes 0.5 mg/mL, with NADPH, compound 0.5 μM; read-out: Human Liver Microsomal Stability CLint (uL/min/mg liver) (converted)
quantity_kind: microsomal CLint
The answer consists of two parts: a number and, after it, its unit.

# compound, microsomal CLint
rows = [
    ("CC(=O)[C@H]1CC[C@H]2[C@@H]3CC[C@H]4C[C@](C)(OC(=O)COC(=O)CN5CCOCC5)CC[C@]4(C)[C@H]3CC[C@]12C", "229 µL/min/mg"),
    ("CC(=O)COCN(CCO)CC(=O)OC(C)(C)C(=O)OCC(=O)O[C@]1(C)CC[C@@]2(C)[C@@H](CC[C@@H]3[C@@H]2CC[C@]2(C)[C@@H](C(C)=O)CC[C@@H]32)C1", "471 µL/min/mg"),
    ("CC(=O)[C@H]1CC[C@H]2[C@@H]3CC[C@H]4C[C@](C)(OC(=O)CC(C)(C)C(=O)NCCN(C)C)CC[C@]4(C)[C@H]3CC[C@]12C", "5.07 µL/min/mg"),
]

Please state microsomal CLint for every compound in the list that follows.
1. CC(=O)[C@H]1CC[C@H]2[C@@H]3CC[C@H]4C[C@](C)(OC(=O)CN5CCC[C@H]5C(=O)OCc5ccccc5)CC[C@]4(C)[C@H]3CC[C@]12C
2. CC(=O)[C@H]1CC[C@H]2[C@@H]3CC[C@H]4C[C@](C)(OC(=O)C5CC5C(=O)O)CC[C@]4(C)[C@H]3CC[C@]12C (some centres unmarked)

["153 µL/min/mg", "9.72 µL/min/mg"]

----------
procedure_summary: in vitro
study_conditions: rat, plasma
Assignment: determine reported log10 half-life for the given molecules.
Please note: log10 values; quantity half-life; unit h.

Hi team, please reply with log10 half-life for each item in this list.
1. CC(=O)[C@H]1CC[C@H]2[C@@H]3CC[C@H]4C[C@](C)(OC(=O)COC(=O)CN5CCOCC5)CC[C@]4(C)[C@H]3CC[C@]12C
2. CC(=O)[C@H]1CC[C@H]2[C@@H]3CC[C@H]4C[C@](C)(OC(=O)CO)CC[C@]4(C)[C@H]3CC[C@]12C
3. CC(=O)[C@H]1CC[C@H]2[C@@H]3CC[C@H]4C[C@](C)(OC(=O)CNC(C)(C)C(=O)O)CC[C@]4(C)[C@H]3CC[C@]12C
4. CC(=O)[C@H]1CC[C@H]2[C@@H]3CC[C@H]4C[C@](C)(O)CC[C@]4(C)[C@H]3CC[C@]12C
5. CC(=O)[C@H]1CC[C@H]2[C@@H]3CC[C@H]4C[C@](C)(OC(=O)CN5CCOCC5)CC[C@]4(C)[C@H]3CC[C@]12C
6. CC(=O)[C@H]1CC[C@H]2[C@@H]3CC[C@H]4C[C@](C)(OC(=O)COC(=O)C(C)(C)OC(=O)CN(CCO)CCO)CC[C@]4(C)[C@H]3CC[C@]12C
7. CC(=O)[C@H]1CC[C@H]2[C@@H]3CC[C@H]4C[C@](C)(OC(=O)COC(=O)C(C)(C)O)CC[C@]4(C)[C@H]3CC[C@]12C
8. CC(=O)[C@H]1CC[C@H]2[C@@H]3CC[C@H]4C[C@](C)(OC(=O)COC(=O)C(C)(C)N)CC[C@]4(C)[C@H]3CC[C@]12C

1: -0.80; 2: 0.96; 3: 0.94; 4: 1.02; 5: 1.58; 6: -0.70; 7: -0.62; 8: -0.03

Provide reported log10 half-life for each item, in the same order as listed.
1. CC(=O)[C@H]1CC[C@H]2[C@@H]3CC[C@H]4C[C@](C)(OC(=O)CN)CC[C@]4(C)[C@H]3CC[C@]12C
2. COc1ccccc1N1CCN(CC(=O)O[C@]2(C)CC[C@@]3(C)[C@@H](CC[C@@H]4[C@@H]3CC[C@]3(C)[C@@H](C(C)=O)CC[C@@H]43)C2)CC1

[1.16, 0.49]

----------
procedure_summary: in vitro
study_conditions: human, plasma
Protocol: The plasma stability of exemplary compounds was tested using rat, mice, dog, and human plasma, according to the following protocol. For each test compound, samples at a final concentration of 2 μg/mL were prepared in blank plasma of selected species. All samples were incubated at 37° C. on a 150-RPM orbital shaker, and an aliquot was removed at pre-determined time points (0, 15, 30, 60, and 120 minutes). […]
quantity_kind: Observations: stability / GNX production in human plasma

# structure_notation, recorded_result
measured = [
    ("CC(=O)[C@H]1CC[C@H]2[C@@H]3CC[C@H]4C[C@](C)(OC(=O)COC(=O)CN5CCN(C)CC5)CC[C@]4(C)[C@H]3CC[C@]12C", "No GNX produced"),
    ("CC(=O)[C@H]1CC[C@H]2[C@@H]3CC[C@H]4C[C@](C)(OC(=O)COC(=O)C(C)(C)OC(=O)CN(CCO)CCO)CC[C@]4(C)[C@H]3CC[C@]12C", "No GNX produced"),
    ("CC(=O)OCCN(C)CC(=O)OC(C)(C)C(=O)OCC(=O)O[C@]1(C)CC[C@@]2(C)[C@@H](CC[C@@H]3[C@@H]2CC[C@]2(C)[C@@H](C(C)=O)CC[C@@H]32)C1", "No GNX produced"),
]

----------
procedure_summary: in vitro
study_conditions: human plasma, 2 μg/mL, 37° C.
quantity_kind: Human plasma t90 (min)
Give bare numbers, in min.

Answered examples (4):
# structure_notation, recorded_result
records = [
    ("CC(=O)[C@H]1CC[C@H]2[C@@H]3CC[C@H]4C[C@](C)(OC(=O)COC(=O)C(C)(C)OC(=O)CN(CCO)CCO)CC[C@]4(C)[C@H]3CC[C@]12C", 1.4),
    ("CC(=O)[C@H]1CC[C@H]2[C@@H]3CC[C@H]4C[C@](C)(OC(=O)COC(=O)OCCN(C)C)CC[C@]4(C)[C@H]3CC[C@]12C", 3.18),
    ("CC(=O)[C@H]1CC[C@H]2[C@@H]3CC[C@H]4C[C@](C)(OC(=O)COC(=O)C(C)(C)N)CC[C@]4(C)[C@H]3CC[C@]12C", 8.6),
    ("CC(=O)[C@H]1CC[C@H]2[C@@H]3CC[C@H]4C[C@](C)(OC(=O)COC(=O)CN5CCN(C)CC5)CC[C@]4(C)[C@H]3CC[C@]12C", 26.6),
]

We now examine a further compound.
In one line, give reported Human plasma t90 of the entry CC(=O)[C@H]1CC[C@H]2[C@@H]3CC[C@H]4C[C@](C)(OC(=O)COC(=O)CN5CCOCC5)CC[C@]4(C)[C@H]3CC[C@]12C .
2.19

----------
procedure_summary: in vitro
Format: in vitro ADME, human
study_conditions: human liver microsomes 0.5 mg/mL, with NADPH, compound 0.5 μM, 37° C.; read-out: Human Liver Microsomal Stability t1/2
Give log10 half-life for every item shown.
Each number you see is log10 of half-life, and the unit inside the log is h.

Some solved entries appear below for comparison.
# compound, log10 half-life
rows = [
    ("CC(=O)[C@H]1CC[C@H]2[C@@H]3CC[C@H]4C[C@](C)(OC(=O)COC(=O)CN5CCOCC5)CC[C@]4(C)[C@H]3CC[C@]12C [Compound 200]", -1.00),
    ("CC(=O)[C@H]1CC[C@H]2[C@@H]3CC[C@H]4C[C@](C)(OC(=O)CC(C)(C)C(=O)NCCN(C)C)CC[C@]4(C)[C@H]3CC[C@]12C [Compound 412]", 0.66),
    ("CC(=O)[C@H]1CC[C@H]2[C@@H]3CC[C@H]4C[C@](C)(OCOC(=O)CN5CCOCC5)CC[C@]4(C)[C@H]3CC[C@]12C [Compound 504]", -1.38),
    ("CC(=O)[C@H]1CC[C@H]2[C@@H]3CC[C@H]4C[C@](C)(OC(=O)C[C@H](N)C(=O)O)CC[C@]4(C)[C@H]3CC[C@]12C [Compound 414]", 0.47),
    ("CC(=O)[C@H]1CC[C@H]2[C@@H]3CC[C@H]4C[C@](C)(OC(=O)CCC(=O)NCCN(C)C)CC[C@]4(C)[C@H]3CC[C@]12C [Compound 410]", 0.86),
]

Can you give me log10 half-life for all of these, one by one?
1. CC(=O)[C@H]1CC[C@H]2[C@@H]3CC[C@H]4C[C@](C)(OC(=O)CCN5C(=O)CCC5=O)CC[C@]4(C)[C@H]3CC[C@]12C [Compound 415]
2. CC(=O)[C@H]1CC[C@H]2[C@@H]3CC[C@H]4C[C@](C)(O)CC[C@]4(C)[C@H]3CC[C@]12C [ganaxolone, Ganaxolone]
3. CC(=O)[C@H]1CC[C@H]2[C@@H]3CC[C@H]4C[C@](C)(OC(=O)CC[C@H](N)C(=O)O)CC[C@]4(C)[C@H]3CC[C@]12C [Compound 416]

1. -0.86
2. -0.68
3. 0.66

Count: 3. Required value per item: log10 half-life.
1. CC(=O)[C@H]1CC[C@H]2[C@@H]3CC[C@H]4C[C@](C)(OC(=O)CN(C)C(=O)CN5CCOCC5)CC[C@]4(C)[C@H]3CC[C@]12C [Compound 115]
2. CC(=O)[C@H]1CC[C@H]2[C@@H]3CC[C@H]4C[C@](C)(OC(=O)C5CC5C(=O)O)CC[C@]4(C)[C@H]3CC[C@]12C (stereo partly drawn) [Compound 408]
3. CC(=O)[C@H]1CC[C@H]2[C@@H]3CC[C@H]4C[C@](C)(OC(=O)CNCC(=O)O)CC[C@]4(C)[C@H]3CC[C@]12C [Compound 124]

[-0.64, 0.38, 0.95]
